test: chemical genetic growth profiling, strain panel (AID 1159580);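 further: tested at 20 µM; growth read once vehicle control cultures reached saturation at 30 °C; 1 = growth at the plate median or of vehicle wells; lower values mean less growth of the strain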; details: S. cerevisiae deletion strains, growth OD, locus YHR129C, strain ARP1, active compounds read low
The whole screen tested about 5,500 compounds, of which about 2,000 (36%) were called active. Roughly 18% stayed inconclusive and do not appear here. This is one part of the list.
Here, each record is paired with measured normalized growth data.
Form field (numeric): enter value without unit.

See these solved cases before continuing.
>  <COMPOUND>
NC(=O)c1ccc([N+](=O)[O-])cc1Cl

>  <normalized growth>
0.997

$$$$
>  <COMPOUND>
CC[C@@]1(O)C(=O)OCc2c1cc1n(c2=O)Cc2cc3ccccc3nc2-1

>  <normalized growth>
0.801

$$$$
>  <COMPOUND>
C[C@@H]1O[C@@H](O[C@H]2CC[C@]3(C=O)C4CC[C@]5(C)[C@@H](C6=CC(=O)OC6)CC[C@]5(O)C4CC[C@]3(O)C2)[C@H](O)[C@H](O)[C@H]1O (stereo partly specified)

>  <normalized growth>
1

$$$$
>  <COMPOUND>
NS(=O)(=O)c1cc2c(cc1C(F)(F)F)NC(Cc1ccccc1)NS2(=O)=O (stereo unspecified)

>  <normalized growth>
1.01

$$$$
>  <COMPOUND>
C[C@]12CCC3C(CC[C@]4(O)C[C@@H](O)CC[C@]34C=O)[C@@]1(O)CCC2C1=CC(=O)OC1 (stereo partly specified)

>  <normalized growth>
0.989

$$$$

For the compound COc1ccc(-c2cc(=O)c3c(O)c(OC)c(O[C@H]4O[C@H](CO[C@@H]5O[C@@H](C)[C@H](O)[C@@H](O)[C@H]5O)[C@@H](O)[C@H](O)[C@H]4O)cc3o2)cc1 , what normalized growth is on record?
1

Reported normalized growth for COc1cccc2c1CCC1=CC(=O)CC[C@@]12C : what is it?
0.995

Reported normalized growth, compound COP(N)(=O)SC (stereo unspecified) : ____
0.998

// normalized growth lookup, key: COc1ccc(-c2cc(=O)c3c(O)cc(O)cc3o2)cc1O
0.989

# input compound: CC1(C)S[C@@H]2[C@H](NC(=O)[C@@H](N)c3ccc(O)cc3)C(=O)N2[C@H]1C(=O)O ; wanted: its normalized growth
1.01

Query (compound): COC1C(O)C(O[C@H]2CC[C@]3(C=O)C4C(CC[C@]3(O)C2)[C@@]2(O)CC[C@H](C3=CC(=O)OC3)[C@@]2(C)C[C@H]4OC(C)=O)OC(C)C1OC(C)=O (stereo partly specified) ; field requested: normalized growth
1.03

What does the data say about its normalized growth? Entry: COc1ccc(-c2cc(=O)c3c(O)cc(O)cc3o2)cc1
0.998

Query (compound): COc1cc(O)c2c(=O)cc(-c3ccc(OC)c(-c4c(O)cc(O)c5c(=O)cc(-c6ccc(O)cc6)oc45)c3)oc2c1 ; field requested: normalized growth
0.931

Requested field: normalized growth. Item: CC1=CC(=O)C2C(C)(C)CCC[C@]2(C)[C@@]1(O)CCc1ccoc1 (stereo partly specified)
0.989

Suppose we examine the compound NCCCCN ; what normalized growth value has been reported?
1.01

Please look up its normalized growth: N#Cc1c(Cl)cccc1Cl
1.01

So what's the measured normalized growth for this one? Cc1ccccc1N1C(=O)c2cc(S(N)(=O)=O)c(Cl)cc2NC1C (stereo unspecified)
0.988

Which normalized growth value belongs to CC12CCC3C(CCC4(O)CC(O)CCC34/C=N/NC(N)=O)C1(O)CCC2C1=CC(=O)OC1 (stereo unspecified) ?
1.01

Could you tell me which normalized growth is on file for CC(=O)[C@@]1(O)CCC2C3C=C(Cl)C4=CC(=O)[C@@H]5CC5[C@]4(C)C3CC[C@@]21C (stereo partly specified) ?
1

Sample Oc1ccc2c3c1OC1[C@@H](O)CC[C@@]4(O)[C@@H](C2)N(CC2CCC2)CC[C@]314 (stereo partly specified) — what was its normalized growth?
1

Would you mind telling me what normalized growth value was observed for O=C(Oc1ccccc1C(=O)O)c1ccccc1O ?
0.955

Given COc1ccc(-c2cc(=O)c3c(O)c(OC)c(OC)cc3o2)cc1O , state its recorded normalized growth.
0.978

Record request: normalized growth value, item NC(=O)c1cc([N+](=O)[O-])cc([N+](=O)[O-])c1
1.02

What value of normalized growth has been recorded for this entry: CCCCC(=O)O[C@]1(C(=O)CO)[C@@H](C)CC2C3CCC4=CC(=O)C=C[C@]4(C)[C@@]3(F)C(O)C[C@@]21C (stereo partly specified)
0.983

Give the measured normalized growth of C[N+]1(C)C[C@H](O)[C@H](C(=O)[O-])C1 .
1.01

Consider the compound CC[C@@]1(O)C(=O)OCc2c1cc1n(c2=O)Cc2cc3cc(O)ccc3nc2-1 and give its measured normalized growth.
1.01

Ref: PubChem BioAssay AID1159580
